// data source = the supplement of paper PMC12669797

System: TOV-21G
Assay: cell viability relative to DMSO control (MTS) (fraction of DMSO control); higher = more viable cells / less growth inhibition
Test Parameters: 10 µM; 48 h
The class of a record is decided solely by its measured cell viability; consult low value (below 0.6), medium value (0.6 to below 1), high value (1 or more)

Study these solved cases before continuing.
Please classify: `CC(C)(C)c1nc2c3cc[nH]c(=O)c3c3cc(F)ccc3c2[nH]1` medium value

Next compound: `Nc1nc(Nc2ccc(S(N)(=O)=O)cc2)nn1C(=S)Nc1c(F)cccc1F` medium value

Next compound: `COC(=O)[C@H](CC(C)C)NC(=O)c1ccc(NC[C@@H](N)CS)cc1-c1ccccc1` medium value

Next compound: `CNC(=O)[C@H](Cc1c[nH]c2ccccc12)NC(=O)[C@@H](CC(=O)NO)CC(C)C` medium value

Next compound: N#C/C(=C(/N)Sc1ccccc1N)c1cccc(C(O)c2ccncc2)c1 (stereo not drawn) medium value

New cases:
Please classify: Cc1c(C)c2c(c(C)c1O)CCC(C)(COc1ccc(CC3SC(=O)NC3=O)cc1)O2 (stereo not drawn) high value

Next compound: CC(C)(C)NC(=O)[C@H]1CC[C@H]2[C@@H]3CC[C@H]4NC(=O)C=C[C@]4(C)[C@H]3CC[C@]12C [Finasteride] medium value

Next compound: COc1ccc(CCN(C)CCCC(C#N)(c2ccc(OC)c(OC)c2)C(C)C)cc1OC (stereo not drawn) high value

Next compound: `NCC(=O)Nc1ccc(-n2nc(C(F)(F)F)cc2-c2ccc3c(ccc4ccccc43)c2)cc1` high value

Next compound: C/C=C/C=C\C=C/C(O)C(C)C(CCC(C)C1OC(=O)C=CC1C)OP(=O)(O)O (stereo not drawn) low value

Next compound: `O=c1c2ccccc2[nH]c(=S)n1CCN1CCC(=C(c2ccc(F)cc2)c2ccc(F)cc2)CC1` high value

Next compound: `O=C(CCCCCN1C(=O)c2cccc3cccc(c23)C1=O)NO` low value

Next compound: `CC(C)C[C@@H](C=O)NC(=O)[C@H](CC(C)C)NC(=O)[C@H](CC(C)C)NC(=O)OCc1ccccc1` low value

Next compound: `CC[n+]1c(/C=C/N(C)c2ccccc2)n(-c2ccccc2)c2ccc(-c3nc4ccccc4s3)cc21` low value

Next compound: `CC(/C=C/C(=O)NO)=C\[C@@H](C)C(=O)c1ccc(N(C)C)cc1` low value

Next compound: `CO[C@H]1C[C@@H]2CC[C@@H](C)[C@@](O)(O2)C(=O)C(=O)N2CCCC[C@H]2C(=O)O[C@H]([C@H](C)C[C@@H]2CC[C@@H](OCCO)[C@H](OC)C2)CC(=O)[C@H](C)/C=C(\C)[C@@H](O)[C@@H](OC)C(=O)[C@H](C)C[C@H](C)/C=C/C=C/C=C/1C` medium value

Next compound: `N#CCCc1ccc2c(c1)-c1[nH]c3ccc([N+](=O)[O-])cc3c1CC(=O)N2` medium value

Next compound: `COC(=O)CNC(=O)C(=O)OC` medium value

Next compound: CCCCN1C(=O)C2Cc3c([nH]c4ccccc34)C(c3cccc(O)c3)N2C1=O (stereo not drawn) low value

Next compound: `CO[C@H]1C[C@@H]2CC[C@@H](C)[C@@](O)(O2)C(=O)C(=O)N2CCCC[C@H]2C(=O)O[C@H]([C@H](C)C[C@@H]2CC[C@@H](O)[C@H](OC)C2)CC(=O)[C@H](C)/C=C(\C)[C@@H](O)[C@@H](OC)C(=O)[C@H](C)C[C@H](C)/C=C/C=C/C=C/1C` low value

Next compound: `COc1cc2c(NC3CCN(C(C)C)CC3)nc(C3CCCCC3)nc2cc1OCCCN1CCCC1` low value

Next compound: `O=C(O)c1cc(NCc2cc(O)ccc2O)ccc1O` high value

Next compound: C[C@@H]1C[C@H]2O[C@@H]2/C=C\C=C\C(=O)Cc2c(Cl)c(O)cc(O)c2C(=O)O1 [radicicol] low value

Next compound: NC(=O)NO [Hydroxyurea] medium value

Next compound: `Cc1c[nH]c(/C=C2\C(=O)Nc3ccccc32)c1CCC(=O)O` high value

Next compound: `CC1=C(/C=C/C(C)=C/C=C/C(C)=C/C(=O)O)C(C)(C)CCC1` high value

* * *

Tested on: ES2
Assay: cell viability relative to DMSO control (MTS) (fraction of DMSO control); higher = more viable cells / less growth inhibition
Test Parameters: 10 µM; 48 h
Structures can show the parent of a compound that is named as a salt.
Reported Property: cell viability
Give the figure only, with no unit attached.

Example entries and their recorded answers appear below.
# cell viability lookup, item CNCCCN1c2ccccc2CCc2ccccc21 [desipramine hydrochloride] 0.954

Next molecule: COc1cccc2c1C(=O)c1c(O)c3c(c(O)c1C2=O)C[C@@](O)(C(=O)CO)C[C@@H]3O[C@H]1C[C@H](N)[C@H](O)[C@H](C)O1 [Doxorubicin, HCl] 0.312

Next molecule: `CC(C)C[C@@H](C=O)NC(=O)[C@H](CC(C)C)NC(=O)[C@H](CC(C)C)NC(=O)OCc1ccccc1` 0.298

Next molecule: Nc1nc2c(nc(Sc3ccc(Cl)cc3)n2C2O[C@@H]3CO[P+](O)(S)OC3[C@@H]2O)c(=O)[nH]1 (some centres undefined) 1.02

Next molecule: O=C1Cc2c([nH]c3ccc(Br)cc23)-c2ccccc2N1 [Kenpaullone] 0.701

New cases:
# cell viability lookup, item `O=C(Cc1ccccc1)Nc1c2c(nc3ccccc13)N(Cc1ccccc1)CC2` 0.96

Next molecule: C[S+]([O-])c1ccc(-c2nc(-c3ccc(F)cc3)c(-c3ccncc3)[nH]2)cc1 (centres undefined) 0.916

Next molecule: CCNCCCNCCCCNCCCNCC [N1,N12-Diethylspermine (BESpm)] 1

Next molecule: CC1(C)CCC(C)(C)c2cc(NC(=O)c3ccc(C(=O)O)cc3)ccc21 [tamibarotene] 1.16

* * *

Tested on: ES2
Assay: cell viability relative to DMSO control (MTS) (fraction of DMSO control); higher = more viable cells / less growth inhibition
Test Parameters: 10 µM; 48 h
Reported Property: cell viability
Give the figure only, with no unit attached.

# cell viability lookup, item `O=C(O)c1cc(NCc2cc(O)ccc2O)ccc1O` 1.36

Next compound: `COc1ccc(C2=N[C@@H](c3ccc(Cl)cc3)[C@@H](c3ccc(Cl)cc3)N2C(=O)N2CCNC(=O)C2)c(OC(C)C)c1` 0.825

Next compound: `CN(C)CCCCC(=O)Nc1ccc(NC(=S)NC(=O)c2ccc(C(C)(C)C)cc2)cc1` 0.406

Below: the item to evaluate.
# cell viability lookup, item `C/C=C/C/C=C/CCC(=O)[C@H]1O[C@H]1C(N)=O` 1.4

* * *

System: TOV-21G
Assay: cell viability relative to DMSO control (MTS) (fraction of DMSO control); higher = more viable cells / less growth inhibition
Test Parameters: 10 µM; 48 h
Reported Property: cell viability
Give the figure only, with no unit attached.

Example entries and their recorded answers appear below.
Param readout= cell viability; system= TOV-21G; entry= `Oc1ccc(-c2nc(-c3ccc(F)cc3)c(-c3ccncc3)[nH]2)cc1` ; returns value. 0.806

Next compound: `CC(C)C[C@@H](N)[C@H](O)C(=O)N[C@H](C(=O)N[C@H](C(=O)N[C@@H](CC(=O)O)C(=O)O)C(C)C)C(C)C` 1.02

Next compound: `CC(=N)NCc1cccc(CN)c1` 0.992

New cases:
Param readout= cell viability; system= TOV-21G; entry= `O=c1cc(-c2ccccc2)oc2cc(O)c(O)c(O)c12` ; returns value. 0.821

Next compound: `C=CCc1cccc(/C=N/NC(=O)CN2CCN(Cc3ccccc3)CC2)c1O` 0.821

* * *

System: ES2
Assay: cell viability relative to DMSO control (MTS) (fraction of DMSO control); higher = more viable cells / less growth inhibition
Test Parameters: 10 µM; 48 h
Reported Property: cell viability
Give the figure only, with no unit attached.

# cell viability lookup, item `C=CCc1cccc(/C=N/NC(=O)CN2CCN(Cc3ccccc3)CC2)c1O` 0.787

New cases:
# cell viability lookup, item `CO[C@H]1C[C@@H]2CC[C@@H](C)[C@@](O)(O2)C(=O)C(=O)N2CCCC[C@H]2C(=O)O[C@H]([C@H](C)C[C@@H]2CC[C@@H](OC(=O)C(C)(CO)CO)[C@H](OC)C2)CC(=O)[C@H](C)/C=C(\C)[C@@H](O)[C@@H](OC)C(=O)[C@H](C)C[C@H](C)/C=C/C=C/C=C/1C` 0.824

Next compound: `COc1cc(/C=C(\C#N)C(N)=O)cc(CSc2nc3ccccc3s2)c1O` 0.978

Next compound: `CCn1cc(C(=O)O)c(=O)c2ccc(C)nc21` 0.981

* * *

Below: a set of entries, each annotated with reported cell viability.
Test system: ES2
Assay: cell viability relative to DMSO control (MTS) (fraction of DMSO control); higher = more viable cells / less growth inhibition
Test Parameters: 10 µM; 48 h
Structures can show the parent of a compound that is named as a salt.
Give the figure only, with no unit attached.

Param readout= cell viability; system= ES2; entry= `COC(=O)Nc1nc2cc(C(=O)c3cccs3)ccc2[nH]1` ; returns value. 0.451

Next compound: `CC(C)c1cc(/C=C(\C#N)C(=O)NCCCc2ccccc2)cc(C(C)C)c1O` 1.3

Next compound: `O=C1C(SCCO)=C(SCCO)C(=O)c2ccccc21` 0.962

Next compound: `CCC(=C/[C@H](C)C/C=C/C(C)=C/[C@@H](C)C(=O)[C@@H](C)[C@H](O)[C@@H](C)C/C(C)=C/C(=O)O)/C=C/[C@@H]1OC(=O)C=C[C@@H]1C` 0.406

Next compound: `CCOc1nc(NC(=O)Cc2cc(OC)ccc2OC)cc(N)c1C#N` 1.09

New cases:
Param readout= cell viability; system= ES2; entry= `CS(=O)(=O)Nc1ccc([N+](=O)[O-])cc1OC1CCCCC1` ; returns value. 0.933

Next compound: c1cc(CN2CCCNCCNCCCNCC2)ccc1CN1CCCNCCNCCCNCC1 [AMD3100 octahydrochloride] 1.4
